Source listed as patent US20070299072A1.

# Target under test: Kv1.5 (Homo sapiens, UniProt P22460)
# Construct: expressed in transfected cells; host or cells: HEK or LTK- cells
# Sequence (P22460 whole entry): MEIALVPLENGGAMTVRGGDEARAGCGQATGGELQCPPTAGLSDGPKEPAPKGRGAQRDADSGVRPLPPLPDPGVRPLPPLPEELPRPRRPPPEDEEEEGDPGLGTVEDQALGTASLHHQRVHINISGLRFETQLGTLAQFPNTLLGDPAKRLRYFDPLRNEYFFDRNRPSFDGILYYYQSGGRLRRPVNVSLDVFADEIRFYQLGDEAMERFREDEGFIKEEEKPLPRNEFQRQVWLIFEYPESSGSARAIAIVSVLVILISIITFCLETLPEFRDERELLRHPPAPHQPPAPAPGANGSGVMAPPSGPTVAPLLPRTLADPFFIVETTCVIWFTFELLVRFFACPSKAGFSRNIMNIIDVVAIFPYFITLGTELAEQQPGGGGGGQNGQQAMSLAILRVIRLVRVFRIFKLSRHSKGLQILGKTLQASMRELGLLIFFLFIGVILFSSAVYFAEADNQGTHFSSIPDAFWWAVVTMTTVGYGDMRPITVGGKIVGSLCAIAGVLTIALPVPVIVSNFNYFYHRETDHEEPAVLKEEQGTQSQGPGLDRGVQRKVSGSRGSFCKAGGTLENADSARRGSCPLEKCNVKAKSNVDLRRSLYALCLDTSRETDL
# Test method notes: Kv1.5 Patch Clamp EP (whole cell patch clamp; single point at 1 μM and IC50)
# Assay type: cell-based
# Condition label: single point at 1.0 μM, Kv1.5 stably over expressed in HEK or LTK- cells
Observable: inhibition at 1 µM (%)

COc1ccc(CCN2C(=O)C3(CCN(C(=O)OC(C)(C)C)CC3)NC2Cc2ccc(C(C)(C)C)cc2)cc1 (stereo not drawn)
96
COc1ccc(CCN2C(=O)C3(CCN(C(=O)C(C)(C)N)CC3)N(C)C2c2ccc(C3CC3)cc2)cc1 (stereo not drawn)
11
COc1ccc(CCN2C(=O)C3(CCN(C(C)=O)CC3)N(C)C2c2ccc(C3CC3)cc2)cc1 (stereo not drawn)
84
COc1ccc(CCN2C(=O)C3(CCNCC3)NC2c2ccc(C3CC3)cc2)cc1 (stereo not drawn)
21
COc1ccc(CCN2C(=O)C3(CCN(C(=O)N4CCCCC4)CC3)N(C)C2c2ccc(C3CC3)cc2)cc1 (stereo not drawn)
96
COc1ccc(CCN2C(=O)C3(CCN(C(=O)OC(C)(C)C)CC3)NC2c2ccc(C(C)(C)C)cc2)cc1 (stereo not drawn)
32
COc1ccc(CCN2C(=O)C3(CCN(CC(N)=O)CC3)N(C)C2c2ccc(OC(F)F)cc2)cc1 (stereo not drawn)
25
CONC(=O)N1CCC2(CC1)C(=O)N(CCc1ccc(OC)cc1)C(c1ccc(C3CC3)cc1)N2C (stereo not drawn)
82

(P) COc1ccc(CCN2C(=O)C3(CCN(C(=O)N(C)C)CC3)N(C)C2c2ccc(C3CC3)cc2)cc1 (stereo not drawn)
(Q) COc1ccc(CCN2C(=O)C3(CCN(S(C)(=O)=O)CC3)N(C)C2c2ccc(C(F)(F)F)cc2)cc1 (stereo not drawn)
(R) CN1C(c2ccc(C3CC3)cc2)N(CCc2ccc(OC(F)(F)F)cc2)C(=O)C12CCN(C(=O)OC(C)(C)C)CC2 (stereo not drawn)
(S) COc1ccc(CCN2C(=O)C3(CCN(C(=O)C(C)(C)NC(=O)OC(C)(C)C)CC3)N(C)C2c2ccc(C3CC3)cc2)cc1 (stereo not drawn)
Q: // ascending sort on recorded inhibition at 1 µM Respond with the label ranking, as requested.
Ans: R, P, S, Q

(a) COc1ccc(CCN2C(=O)C3(CCNCC3)N(C)C2Cc2ccc(C(C)(C)C)cc2)cc1 (stereo not drawn)
(b) CN1C(c2ccc(C3CC3)cc2)N(CCCc2ccccc2)C(=O)C12CCN(C(N)=O)CC2 (stereo not drawn)
Q: Between a and b , whose measured inhibition at 1 µM reads higher? Reply briefly: the label of your chosen item.
Ans: b
(b: 86%, a: 5%)

---

# Target under test: Kv1.5 (Homo sapiens)
# Test method notes: Kv1.5 Patch Clamp EP (whole cell patch clamp; single point at 1 μM and IC50)
# Condition label: concentration response
pIC50: −log10 of the molar value.
Observable: pIC50

// known answers, use as guide
COc1ccc(CCN2C(=O)C3(CCN(C(=O)OC(C)(C)C)CC3)NC2c2ccc(OC(F)F)cc2)cc1 (stereo not shown)
6.59
COc1ccc(CCN2C(=O)C3(CCN(C(N)=O)CC3)N(C)C2Cc2ccc(C(C)(C)C)cc2)cc1 (stereo not shown)
6.60
COc1ccc(CCN2C(=O)C3(CCN(C(C)=O)CC3)N(C)C2c2ccc(C3CC3)cc2)cc1 (stereo not shown)
6.29
COc1ccc(CCN2C(=O)C3(CCN(CC(=O)N(C)C)CC3)N(C)C2c2ccc(C3CC3)cc2)cc1 (stereo not shown)
6.56

(a) COc1ccc(CCN2C(=O)C3(CCN(C(=O)NC(C)C)CC3)N(C)C2c2ccc(C3CC3)cc2)cc1 (stereo not shown)
(b) COc1ccc(CCN2C(=O)C3(CCN(C(N)=O)CC3)N(C)C2c2ccc(C(C)(C)C)cc2)cc1 (stereo not shown)
(c) COc1ccc(CCN2C(=O)C3(CCN(C(=O)C4CC4)CC3)N(C)C2c2ccc(C3CC3)cc2)cc1 (stereo not shown)
Q: Ranking field: pIC50; order: falling. Provide the labels, sequenced as the question asks.
Ans: c, a, b
(c: 6.82, a: 6.50, b: 6.21)
